experiment: metabolic stability in human hepatocytes; assay type: in vitro ADME; conditions: cryopreserved human hepatocytes in suspension, tetrahydronaphthalen-2-ol, 37°C, sampled 0-120 min, LC-MS/MS, read-out: Human hepatocyte T1/2
PROPERTY NAME: half-life at 1 µM

INSERT INTO assay_data (molecule, assay_value) VALUES
  ('Cc1cc(C2Cc3ccc(O)cc3C(Cc3ccccc3F)C2C)ccc1O (racemic) [Compound 9r]', '0.965 h'),
  ('CC1C(c2ccc(O)cc2)Cc2ccc(O)c(F)c2C1Cc1c(F)cccc1F (racemic) [Compound 9y]', '1.83 h'),
  ('CCC1C(c2ccc(O)cc2)Cc2ccc(O)cc2C1Cc1ccccc1F (racemic) [Compound 9b]', '1.17 h'),
  ('CC1C(c2ccc(O)cc2)Cc2ccc(O)c(F)c2C1Cc1ccccc1F (racemic) [Compound 9s]', '1.61 h');

----------
Target: human estrogen receptor β receptor (hERβ) (Homo sapiens, UniProt Q92731)
Sequence (Q92731 whole entry): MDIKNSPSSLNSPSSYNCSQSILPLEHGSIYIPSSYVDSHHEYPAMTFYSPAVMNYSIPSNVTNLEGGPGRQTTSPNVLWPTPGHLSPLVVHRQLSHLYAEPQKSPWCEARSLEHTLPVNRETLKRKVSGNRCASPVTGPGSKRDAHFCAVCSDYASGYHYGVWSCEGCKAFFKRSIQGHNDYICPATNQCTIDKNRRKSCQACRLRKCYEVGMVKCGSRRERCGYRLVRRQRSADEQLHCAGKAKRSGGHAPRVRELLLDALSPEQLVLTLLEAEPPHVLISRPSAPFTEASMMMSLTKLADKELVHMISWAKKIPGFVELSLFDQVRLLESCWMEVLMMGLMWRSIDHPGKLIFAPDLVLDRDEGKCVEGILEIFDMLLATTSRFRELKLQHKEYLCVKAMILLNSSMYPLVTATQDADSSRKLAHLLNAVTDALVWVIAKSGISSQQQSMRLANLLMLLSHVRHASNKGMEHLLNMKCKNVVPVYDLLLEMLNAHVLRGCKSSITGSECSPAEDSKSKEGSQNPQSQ
Experiment: ERβ transactivation bioassay in recombinant CHO cells (rat oxytocin promoter, luciferase reporter)
Details: transactivation of luciferase via hERβ in CHO cells; read-out: ERβ agonistic EC50
Protocol: The estrogenic and antiestrogenic activity of compounds was determined in an in vitro bioassay with recombinant Chinese hamster ovary (CHO) cells stably co-transfected with the human estrogen receptor α (hERα) or β receptor (hERβ), the rat oxytocin promoter (RO) and the luciferase reporter gene (LUC). The estrogenic activity of a test compound to stimulate the transactivation of the enzyme luciferase mediated via the estrogen receptors hERα or hERβ is expressed in nM. […]
Entries and their measured EC50 follow.
PROPERTY NAME: EC50 (nM)

INSERT INTO measurements (compound, unit_text, assay_value) VALUES
  ('CC[C@H]1[C@@H](c2ccc(O)c(F)c2)Cc2ccc(O)cc2[C@H]1Cc1ccccc1F (single isomer, unassigned) [Compound 11q]', 'nM', 0.59),
  ('CCC1C(c2ccc(O)cc2)Cc2ccc(O)cc2C1Cc1ccc(F)cc1 (racemic)', 'nM', 0.91),
  ('CCC1C(c2ccc(O)cc2)Cc2ccc(O)cc2C1Cc1ccccc1F (racemic)', 'nM', 0.35),
  ('CC1C(c2ccc(O)cc2)Cc2ccc(O)cc2C1Cc1ccccc1C#N (racemic)', 'nM', 0.56),
  ('CCC1C(c2ccc(O)cc2)Cc2ccc(O)cc2C1Cc1ccccc1 (racemic)', 'nM', 0.42),
  ('CC1C(c2ccc(O)cc2)Cc2ccc(O)c(F)c2C1Cc1ccccc1F (racemic)', 'nM', 4.7),
  ('Cc1cc(C2Cc3ccc(O)cc3C(Cc3ccccc3F)C2C)ccc1O (racemic)', 'nM', 1.2),
  ('CC1C(c2ccc(O)cc2)Cc2ccc(O)cc2C1Cc1ccccc1F (racemic)', 'nM', 0.45);

----------
target: human estrogen receptor β receptor (hERβ) (Homo sapiens); experiment: ERβ transactivation bioassay in recombinant CHO cells (rat oxytocin promoter, luciferase reporter); assay type: cell-based; conditions: ERβ agonistic selectivity over ERα, transactivation data
Entries and their measured ERβ/ERα ratio follow.
PROPERTY NAME: ERβ/ERα ratio

INSERT INTO assay_data (molecule, assay_value) VALUES
  ('CC1C(c2ccc(O)cc2)Cc2ccc(O)cc2C1Cc1cccc(F)c1 (racemic)', '>33'),
  ('CC1C(c2ccc(O)cc2)Cc2ccc(O)cc2C1Cc1ccc(F)cc1 (racemic)', '>43'),
  ('C[C@H]1[C@@H](c2ccc(O)cc2)Cc2ccc(O)cc2[C@H]1Cc1ccccc1C#N (single isomer, unassigned) [Compound 11j]', '>714'),
  ('CC1C(c2ccc(O)cc2)Cc2ccc(O)c(F)c2C1Cc1ccccc1F (racemic)', '>21'),
  ('CC1C(c2ccc(O)cc2)Cc2ccc(O)c(F)c2C1Cc1c(F)cccc1F (racemic)', '>8'),
  ('C[C@H]1[C@@H](c2ccc(O)cc2)Cc2ccc(O)cc2[C@H]1Cc1c(F)cccc1F (single isomer, unassigned) [Compound 11i]', '>213'),
  ('Cc1cc(C2Cc3ccc(O)cc3C(Cc3ccccc3F)C2C)ccc1O (racemic)', '>83'),
  ('CC[C@H]1[C@@H](c2ccc(O)c(F)c2)Cc2ccc(O)cc2[C@H]1Cc1ccccc1F (single isomer, unassigned) [Compound 11q]', '>169'),
  ('CCC1C(c2ccc(O)cc2)Cc2ccc(O)cc2C1Cc1ccccc1C (racemic)', '>63');
